B1: library; numbered along this chain (parent)
chain: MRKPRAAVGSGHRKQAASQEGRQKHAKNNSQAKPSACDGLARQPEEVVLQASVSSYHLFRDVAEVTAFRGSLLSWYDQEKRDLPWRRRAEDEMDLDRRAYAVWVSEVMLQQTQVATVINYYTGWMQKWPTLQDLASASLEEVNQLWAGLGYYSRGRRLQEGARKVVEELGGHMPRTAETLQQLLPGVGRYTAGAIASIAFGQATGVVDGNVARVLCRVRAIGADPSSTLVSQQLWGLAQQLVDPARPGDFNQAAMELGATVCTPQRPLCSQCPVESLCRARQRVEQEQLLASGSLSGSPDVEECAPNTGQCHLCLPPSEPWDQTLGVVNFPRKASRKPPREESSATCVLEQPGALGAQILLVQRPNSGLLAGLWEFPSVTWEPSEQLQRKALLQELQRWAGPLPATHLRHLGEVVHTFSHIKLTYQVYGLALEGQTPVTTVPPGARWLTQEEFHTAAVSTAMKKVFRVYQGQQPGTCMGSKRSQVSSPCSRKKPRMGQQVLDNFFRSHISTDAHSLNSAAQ

Variants of: B1
Method Description: 8OG:A repair function score (normalized; synonymous = 0, nonsense = -1) (normalized log-likelihood score); higher = more repair activity (WT-like);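 note: cells sorted at 72 h after reporter transfection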
Condition Details: with 8OG:A DNA repair reporter (GFP) in HEK-293 MUTYH KO cells
Property Label: 8OG:A repair function score
Give the figure only, with no unit attached.

In the examples that follow, each entry is paired with its recorded 8OG:A repair function score.
Variant Description	Property Label	Numeric Value
A89W	8OG:A repair function score	-0.0308
V165C	8OG:A repair function score	-0.0561
L229Y	8OG:A repair function score	0.0445
W128T	8OG:A repair function score	-0.721
A137E	8OG:A repair function score	-0.16
A391P	8OG:A repair function score	-0.305
A334V	8OG:A repair function score	0.00558
V214L	8OG:A repair function score	-0.0688
S227R	8OG:A repair function score	-0.103
L169D	8OG:A repair function score	-0.386

State the recorded 8OG:A repair function score for this entry: K492T
-0.00293

Now this one: A41V
-0.0754

Now this one: Q113V
-0.43

Now this one: P404T
-0.55
